Values compiled from patent US9115169B2.

Hi there, I'd appreciate the recorded MIC E. coli for every entry that follows.
- Tested on: Escherichia coli ATCC 25922
- Condition context: ATCC 25922
Where a SMILES comes first, the peptide text is derived from it. [ ]: non-standard residue; d: D form. The star is where a group is joined. OBn = c1ccc(CO*)cc1

Let me know recorded MIC E. coli for N=C(N)NCCC[C@H](NC(=O)[C@H](CCCNC(=N)N)NC(=O)[C@H](CCCNC(=N)N)NC(=O)[C@H](Cc1c[nH]c2ccccc12)NC(=O)[C@@H](N)Cc1c[nH]c2ccccc12)C(=O)N[C@@H](Cc1c[nH]c2ccccc12)C(N)=O [WWRRRW] (H-WWRRRW-NH2) , thanks.
20 (20) μg/ml

Let me know recorded MIC E. coli for N=C(N)NCCC[C@@H](N)C(=O)N[C@H](Cc1c[nH]c2ccccc12)C(=O)OCc1ccccc1 [rw-OBzl] (H-[dR]-[dW]-OBn) , thanks.
>200 µg/mL

Let me know recorded MIC E. coli for N=C(N)NCCC[C@H](NC(=O)Cc1c[nH]c2ccccc12)C(=O)N[C@@H](Cc1c[nH]c2ccccc12)C(=O)NCCNC(=O)OCc1ccccc1 , thanks.
>200 (>200) μg/ml

* * *

Hi there, I'd appreciate the recorded Minimum inhibitory concentration S. aureus for every entry that follows.
- System: Staphylococcus aureus ATCC 25923
- Condition context: ATCC 25923
Where a SMILES comes first, the peptide text is derived from it. [ ]: non-standard residue; d: D form. The star is where a group is joined. OBn = c1ccc(CO*)cc1
State the answer as a number, implicitly in µg/mL.

Let me know recorded Minimum inhibitory concentration S. aureus for N=C(N)NCCC[C@H](NC(=O)[C@@H](N)Cc1ccccc1)C(=O)OCc1ccc(-c2ccccc2)cc1 , thanks.
12.5

Let me know recorded Minimum inhibitory concentration S. aureus for C[C@H](N)C(=O)N[C@@H](CCCNC(=N)N)C(=O)OCc1ccc(-c2ccccc2)cc1 , thanks.
100

Let me know recorded Minimum inhibitory concentration S. aureus for NCCCC[C@H](N)C(=O)N[C@@H](Cc1c[nH]c2ccccc12)C(=O)OCc1ccccc1 [KW-Obzl] (H-Lys-Trp-OBn; N-terminus assumed) , thanks.
37.5

Let me know recorded Minimum inhibitory concentration S. aureus for NCCCC[C@H](N)C(=O)O[C@H](Cc1c[nH]c2ccccc12)C(=O)OCc1ccccc1 , thanks.
50

Let me know recorded Minimum inhibitory concentration S. aureus for NCCCC[C@@H](N)C(=O)N[C@@H](Cc1c[nH]c2ccccc12)C(=O)OCc1ccccc1 [kW-OBzl] (H-[dK]-Trp-OBn) , thanks.
100

Let me know recorded Minimum inhibitory concentration S. aureus for NCCCC[C@H](N)C(=O)O[C@@H](Cc1c[nH]c2ccccc12)C(=O)OCc1ccccc1 , thanks.
50

Let me know recorded Minimum inhibitory concentration S. aureus for N=C(N)NCCC[C@H](NC(=O)[C@@H](N)Cc1ccc(-c2ccccc2)cc1)C(=O)OCc1ccc(-c2ccccc2)cc1 , thanks.
5.0

Let me know recorded Minimum inhibitory concentration S. aureus for NCCCC[C@H](N)CN[C@@H](Cc1c[nH]c2ccccc12)C(=O)OCc1ccccc1 , thanks.
300

* * *

- Tested on: Escherichia coli ATCC 25922
- Condition context: ATCC 25922
Where a SMILES comes first, the peptide text is derived from it. [ ]: non-standard residue; d: D form. The star is where a group is joined. OBn = c1ccc(CO*)cc1
Readout type: MBC E. coli

Let me know recorded MBC E. coli for N=C(N)NCCC[C@H](N)C(=O)N[C@@H](Cc1c[nH]c2ccccc12)C(=O)N[C@H](CCCNC(=N)N)C(=O)N[C@H](Cc1c[nH]c2ccccc12)C(=O)OCc1ccccc1 [RWrw-OBzl, H-L-Arg-L-Trp-D-Arg-D-Trp-OBzl] (H-RW[dR][dW]-OBn) , thanks.
75 to 100 µg/mL

Let me know recorded MBC E. coli for N=C(N)NCCC[C@H](NC(=O)Cc1c[nH]c2ccccc12)C(=O)N[C@@H](Cc1c[nH]c2ccccc12)C(=O)NCCNC(=O)OCc1ccccc1 , thanks.
>200 (>200) μg/ml

Let me know recorded MBC E. coli for N=C(N)NCCC[C@H](NC(=O)[C@H](Cc1c[nH]c2ccccc12)NC(=O)[C@H](CCCNC(=N)N)NC(=O)[C@H](Cc1c[nH]c2ccccc12)NC(=O)[C@H](CCCNC(=N)N)NC(=O)[C@@H](N)Cc1c[nH]c2ccccc12)C(N)=O [WRWRWR] (H-WRWRWR-NH2) , thanks.
15 µg/mL

Let me know recorded MBC E. coli for N=C(N)NCCC[C@H](NC(=O)[C@H](Cc1c[nH]c2ccccc12)NC(=O)[C@H](CCCNC(=N)N)NC(=O)[C@@H](N)Cc1c[nH]c2ccccc12)C(=O)N[C@@H](Cc1c[nH]c2ccccc12)C(N)=O [WRWRW] (H-WRWRW-NH2) , thanks.
50 µg/mL

* * *

Hi there, I'd appreciate the recorded MBC E. coli for every entry that follows.
- System: Escherichia coli ATCC 25922
- Condition context: ATCC 25922
Where a SMILES comes first, the peptide text is derived from it. The star is where a group is joined. OBn = c1ccc(CO*)cc1

Let me know recorded MBC E. coli for N=C(N)NCCC[C@H](NC(=O)[C@H](Cc1c[nH]c2ccccc12)NC(=O)[C@@H](N)CCCNC(=N)N)C(N)=O [RWR] (H-Arg-Trp-Arg-NH2; N-terminus assumed) , thanks.
>100 µg/mL

Let me know recorded MBC E. coli for N=C(N)NCCC[C@H](N)C(=O)N[C@@H](Cc1c[nH]c2ccccc12)C(=O)OCc1ccccc1 [RW OBz] (H-Arg-Trp-OBn) , thanks.
>200 (>200) μg/ml

Let me know recorded MBC E. coli for COC(=O)[C@H](CCCNC(=N)N)NC(=O)[C@H](Cc1c[nH]c2ccccc12)NC(=O)Cc1c[nH]c2ccccc12 , thanks.
>200 (>200) μg/ml

Let me know recorded MBC E. coli for COC(=O)[C@H](CCCNC(=N)N)NC(=O)[C@H](Cc1c(C(C)(C)C)[nH]c2c(C(C)(C)C)cc(C(C)(C)C)cc12)NC(=O)[C@@H](N)CCCNC(=N)N , thanks.
50 µg/mL

Let me know recorded MBC E. coli for N=C(N)NCCC[C@H](NC(=O)[C@@H](N)Cc1c[nH]c2ccccc12)C(=O)N[C@@H](Cc1c[nH]c2ccccc12)C(N)=O [WRW] (H-Trp-Arg-Trp-NH2; N-terminus assumed) , thanks.
>100 µg/mL

* * *

- Test system: Escherichia coli ATCC 25922
- Condition context: ATCC 25922
Where a SMILES comes first, the peptide text is derived from it. The star is where a group is joined. OBn = c1ccc(CO*)cc1
Readout type: MBC E. coli (µg/mL)
State the answer as a number, implicitly in µg/mL.

Let me know recorded MBC E. coli for N=C(N)NCCC[C@H](NC(=O)[C@H](CCCNC(=N)N)NC(=O)[C@H](CCCNC(=N)N)NC(=O)[C@H](Cc1c[nH]c2ccccc12)NC(=O)[C@@H](N)Cc1c[nH]c2ccccc12)C(=O)N[C@@H](Cc1c[nH]c2ccccc12)C(N)=O [WWRRRW] (H-WWRRRW-NH2) , thanks.
20

Let me know recorded MBC E. coli for N=C(N)NCCC[C@H](NC(=O)[C@H](CCCNC(=N)N)NC(=O)[C@@H](N)CCCNC(=N)N)C(=O)N[C@@H](Cc1c[nH]c2ccccc12)C(=O)N[C@@H](Cc1c[nH]c2ccccc12)C(=O)N[C@@H](Cc1c[nH]c2ccccc12)C(N)=O [RRRWWW] (H-RRRWWW-NH2) , thanks.
20

Let me know recorded MBC E. coli for N=C(N)NCCC[C@H](NC(=O)[C@H](Cc1c[nH]c2ccccc12)NC(=O)[C@@H](N)CCCNC(=N)N)C(=O)N[C@@H](Cc1c[nH]c2ccccc12)C(=O)OCc1ccccc1 [RWRW-OBzl, H-L-Arg-L-Trp-L-Arg-L-Trp-OBzl] (H-RWRW-OBn) , thanks.
100

Let me know recorded MBC E. coli for N=C(N)NCCC[C@H](NC(=O)[C@@H](N)Cc1c[nH]c2ccccc12)C(=O)N[C@@H](Cc1c[nH]c2ccccc12)C(=O)OCc1ccccc1 [WRW OBz] (H-Trp-Arg-Trp-OBn) , thanks.
200

* * *

- System: Escherichia coli ATCC 25922
- Condition context: ATCC 25922
Where a SMILES comes first, the peptide text is derived from it.
Readout type: MBC E. coli (µg/mL)
State the answer as a number, implicitly in µg/mL.

Let me know recorded MBC E. coli for N=C(N)NCCC[C@H](NC(=O)[C@H](Cc1c[nH]c2ccccc12)NC(=O)[C@H](CCCNC(=N)N)NC(=O)[C@H](Cc1c[nH]c2ccccc12)NC(=O)[C@@H](N)CCCNC(=N)N)C(=O)N[C@@H](Cc1c[nH]c2ccccc12)C(N)=O [RWRWRW] (H-RWRWRW-NH2) , thanks.
20

Let me know recorded MBC E. coli for COC(=O)[C@H](CCCNC(=N)N)NC(=O)[C@@H](N)Cc1c(C(C)(C)C)[nH]c2c(C(C)(C)C)cc(C(C)(C)C)cc12 [TbtR OMe, H-Tbt-Arg-OMe] , thanks.
200
